molecular target: human NTCP (Homo sapiens, UniProt Q14973); assay: Myrcludex B-FITC binding by confocal microscopy in U2OS-HA-hNTCP cells; parameters: HA; expressed in transfected cells; details: confocal microscopy; 0.2 µM Myrcludex B-FITC; drug 1, 10, 100 µM; concentration at which binding inhibited minimally 50%
Sequence (Q14973 whole entry): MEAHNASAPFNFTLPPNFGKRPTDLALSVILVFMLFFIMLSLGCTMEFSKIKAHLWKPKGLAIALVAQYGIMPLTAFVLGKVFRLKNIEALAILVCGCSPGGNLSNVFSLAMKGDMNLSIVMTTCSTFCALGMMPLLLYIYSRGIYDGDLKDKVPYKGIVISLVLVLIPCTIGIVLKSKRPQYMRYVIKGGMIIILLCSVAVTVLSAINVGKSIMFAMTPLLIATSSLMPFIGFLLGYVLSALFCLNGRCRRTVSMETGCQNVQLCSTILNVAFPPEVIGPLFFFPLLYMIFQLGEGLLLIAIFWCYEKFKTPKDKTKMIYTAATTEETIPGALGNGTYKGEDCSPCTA
observed.property: ≥50% loss of Myrcludex B binding to hNTCP (concentration)

Observe how each entry below is paired with its result.
compound	system.under.test	observed.result
COc1cc(C(=O)NS(=O)(=O)c2ccccc2C)ccc1Cc1cn(C)c2ccc(NC(=O)OC3CCCC3)cc12 [Zafirlukast]	human NTCP (Homo sapiens, UniProt Q14973)	≥1 µM
COc1cc(-c2ccc(N=Nc3ccc4c(S(=O)(=O)[O-])cc(S(=O)(=O)[O-])c(N)c4c3O)c(OC)c2)ccc1N=Nc1ccc2c(S(=O)(=O)[O-])cc(S(=O)(=O)[O-])c(N)c2c1O.[Na+].[Na+].[Na+].[Na+] [Chicago Sky Blue 6B]	human NTCP (Homo sapiens, UniProt Q14973)	≥1 µM

# evaluate next
input: I am curious: what ≥50% loss of Myrcludex B binding to hNTCP (concentration) value has been reported for O=C(O)c1cc(/N=N/c2ccc(S(=O)(=O)Nc3ccccn3)cc2)ccc1O [Sulfasalazine] ?
output: ≥1 µM

Reference source: paper PMC5681660
